Target: T1, Rhesus-ICAM1 (rhesus, UniProt Q5NKV6 28-480, limits assumed)
T1 sequence (looked up): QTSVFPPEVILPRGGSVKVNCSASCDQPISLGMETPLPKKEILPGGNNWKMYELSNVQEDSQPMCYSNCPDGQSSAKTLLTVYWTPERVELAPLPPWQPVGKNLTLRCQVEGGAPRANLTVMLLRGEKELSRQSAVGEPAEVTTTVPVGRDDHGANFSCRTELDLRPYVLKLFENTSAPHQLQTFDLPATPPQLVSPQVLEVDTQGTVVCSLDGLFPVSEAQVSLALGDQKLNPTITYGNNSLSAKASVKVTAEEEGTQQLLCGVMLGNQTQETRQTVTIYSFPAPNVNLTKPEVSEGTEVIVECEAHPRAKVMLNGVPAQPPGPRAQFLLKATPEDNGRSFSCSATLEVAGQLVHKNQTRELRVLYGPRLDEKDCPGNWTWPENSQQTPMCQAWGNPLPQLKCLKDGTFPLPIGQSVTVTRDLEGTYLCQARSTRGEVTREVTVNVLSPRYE
Experiment: SPR (Biacore 8K), antibody captured, antigen injected
Value kind: kon (M⁻¹ s⁻¹)
A number alone suffices; assume M⁻¹ s⁻¹.

## Task Return reported kon; argument: 5B12 (antibody, human IgG1, kappa, V domains shown, Rabbit-human chimeric anti-ICAM1: rabbit VH and VL on human IgG1 and kappa constant regions) VH: QSLEESGGRLVTPGTPLTLTCTVSGFSLSSYGMSWVRQAPGKGLEYIGWISFSGSAYYANWAKGRFTISKTSTTVDLKITSPTTEDTATYFCARGGDYGGSTYILNLWGPGTLVTVSS VL: AFELTQTPSSVEAAVGGTVTIKCQASESIDSYLSWYQQKPGQPPKLLIYAASTLASGVSSRFKGSGSGTEFTLTISDLESADAATYYCQSYSGTITTSGGAFGGGTEVVVKR
## Result 266000

## Task Next: 10B8 (antibody, human IgG1, kappa, V domains shown, Rabbit-human chimeric anti-ICAM1: rabbit VH and VL on human IgG1 and kappa constant regions) VH: QSLEESGGRLVTPGGSLTLTCTVSGFSLSSYGMSWVRQAPGKGLEYIGWISFSGSAYYANWAKGRFTISKTSTTVDLKITSPTTEDTATYFCARGGDYGGSTYILNLWGPGTLVTVSS VL: AFELTQTPSSVEAAVGGTVTIKCQASESINSYLSWYQQKPGQPPKLLIYAASTLASGVSSRFKGSGSGTEFTLTISDLESADAATYYCQSYSGTISTSGGAFGGGTEVVVKR
## Result 296000

## Task Next: 8E5 (antibody, human IgG1, kappa, V domains shown, Rabbit-human chimeric anti-ICAM1: rabbit VH and VL on human IgG1 and kappa constant regions) VH: QSLEESGGRLVTPGTPLTLTCTVSGFSLSNYAMNWVRQAPGKGLEWIGYISTRGSAYYASWAKGRFTISKTSTTVDLKMTSPTTEDTATYFCARGDLVGGGYIRGSFDPWGPGTLVTVSS VL: AQVLTQTPSPVSAAVGGTVTINCQSSQSVVSDKLLSWFQQKPGQPPKLLIYGASTLASGVPSRFKGSGSGTQFTLTISDVQSDDAATYYCAGAYSTDSDIRAFGGGTEVVVKR
## Result 268000
